system: Enterococcus faecalis; assay: Antibacterial activity against vancomycin B-resistant Enterococcus faecalis SR-23630; assay type: functional; conditions: SR23630
Result Type: MIC

CN[C@H](CC(C)C)C(=O)N[C@H]1C(=O)N[C@@H](CC(N)=O)C(=O)N[C@H]2C(=O)N[C@H]3C(=O)N[C@H](C(=O)N[C@H](C(=O)O)c4cc(O)cc(O)c4-c4cc3ccc4O)[C@H](O)c3ccc(c(/C=C/c4ccccc4)c3)Oc3cc2cc(c3O[C@@H]2O[C@H](CO)[C@@H](O)[C@H](O)[C@H]2O[C@H]2C[C@](C)(N)[C@H](O)[C@H](C)O2)Oc2ccc(cc2Cl)[C@H]1O    64 µg/mL

What reported MIC corresponds to CCCCCC/C=C/c1cc2ccc1Oc1cc3cc(c1O[C@@H]1O[C@H](CO)[C@@H](O)[C@H](O)[C@H]1O[C@H]1C[C@](C)(N)[C@H](O)[C@H](C)O1)Oc1ccc(cc1/C=C/CCCCCC)[C@@H](O)[C@@H](NC(=O)[C@@H](CC(C)C)NC)C(=O)N[C@@H](CC(N)=O)C(=O)N[C@H]3C(=O)N[C@H]1C(=O)N[C@H](C(=O)N[C@H](C(=O)O)c3cc(O)cc(O)c3-c3cc1ccc3O)[C@@H]2O on Enterococcus faecalis?
> 64 µg/mL

Param readout= MIC; system= Enterococcus faecalis; entry= CN[C@H](CC(C)C)C(=O)N[C@H]1C(=O)N[C@@H](CC(N)=O)C(=O)N[C@H]2C(=O)N[C@H]3C(=O)N[C@H](C(=O)N[C@H](C(=O)O)c4cc(O)cc(O)c4-c4cc3ccc4O)[C@H](O)c3ccc(c(/C=C/CCCc4ccccc4)c3)Oc3cc2cc(c3O[C@@H]2O[C@H](CO)[C@@H](O)[C@H](O)[C@H]2O[C@H]2C[C@](C)(N)[C@H](O)[C@H](C)O2)Oc2ccc(cc2/C=C/CCCc2ccccc2)[C@H]1O ; returns value.
> 64 µg/mL
